run.description: reversal of MRP1-mediated doxorubicin resistance, pilot screen, H69AR cells, doxorubicin co-treatment (AID 601)
assay.setup: H69AR cells + 2 uM doxorubicin, CellTiter-Glo, 72 h; at 10 µM; active compounds read high
Examples of compounds with documented differential viability (reversal) follow.
Numbers only here, please. The scale is %.

Would you please look over these solved cases?
1) CC[N+](C)(C)Cc1ccccc1Br: -4.18
2) Cn1cc(NC(=O)c2cc(NC(=O)c3cc(NC=O)cn3C)cn2C)cc1C(=O)NCCC(=N)N: -13.2
3) N#C/C(=C(/O)CN1CCOCC1)c1nc2ccccc2s1: 5.77
4) Nc1nonc1N1CCCCC1: 11.5
5) COc1ccc(-c2coc3cc(O)cc(O)c3c2=O)cc1: -27

Find the measured differential viability (reversal) of Cn1c(SCc2cccc3ccccc23)nnc1-c1ccco1 and report it.
7.87

Find the measured differential viability (reversal) of c1ccc2ncc(-n3cnnn3)cc2c1 and report it.
6.05

* * *

run.description: growth suppression of beta-catenin knockout HCT116, pilot screen, human colon tumor cells (AID 823);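 further: 0% = wells killed by 20 µM Hyamine and 100% = untreated DMSO cell wells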
assay.setup: CellTiter-Glo, 60 h, at 10 µM, active compounds read low
Results filed as inconclusive are left out. Activity calls are given as the source filed them.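 The calls were made as follows: active = cell viability at or below a set limit in both duplicate runs, the limit being the all-compound median minus 4 SD (cut at about 23% in these data, passing the limit was not always enough); inconclusive = no clear call, values can overlap the other calls; inactive = the rest.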
measured.quantity: viability

Would you please look over these solved cases?
1. NC(=O)COc1ccc(=O)n(-c2ccccc2)n1: 107% (inactive)
2. O=c1c2cnn(-c3ccccc3)c2ncn1Cc1ccccc1F: 93% (inactive)

Find the measured viability of Cc1cccc(N(C)c2cc(C)nc3nc(C)nn23)c1 and report it.
64.8% (inactive)

Find the measured viability of CN1CCN(CCCNC(=O)c2cc3c(=O)n(C)c4ccccc4c3s2)CC1 and report it.
53.1% (inactive)

Find the measured viability of O=S(=O)(Nc1cccc(-c2nc3cccnc3s2)c1)c1ccc2c(c1)OCCO2 and report it.
97.7% (inactive)

Find the measured viability of CC1(C)CC(=O)C(C=Nc2ccccc2)=C(O)C1 and report it.
98.1% (inactive)

Find the measured viability of O=C(Cn1cc2c(n1)CCCCC2)NCc1ccccc1 and report it.
102% (inactive)

Find the measured viability of Cc1cc(Nc2ccc(F)cc2Cl)n2nc(C)nc2n1 and report it.
109% (inactive)

Find the measured viability of O=C(NCCCN1CCCCC1)C1(S(=O)(=O)c2ccc(Cl)cc2)CC1 and report it.
103% (inactive)

Find the measured viability of CCc1ccc(NC(=O)CSc2nnc(Cn3c(=O)sc4ccccc43)n2C)cc1 and report it.
104% (inactive)

Find the measured viability of CCOc1ccc(NC(=O)CSc2nnc(Cn3c(=O)sc4ccccc43)n2C)cc1 and report it.
98% (inactive)

Find the measured viability of COc1ccccc1OCCNC(=O)c1ccc(S(=O)(=O)N(C)C)cc1 and report it.
100% (inactive)

Find the measured viability of CCOC(=O)CCc1n[nH]c(=O)[nH]c1=O and report it.
102% (inactive)

Find the measured viability of Nn1c(SCC(=O)Nc2ccc(F)cc2)nnc1-c1ccccn1 and report it.
109% (inactive)

Find the measured viability of CN(C)c1ccc(NC(=O)Cn2c(=O)n(Cc3ccccc3)c(=O)c3ccccc32)cc1 and report it.
83.2% (inactive)

Find the measured viability of Cc1ccc(-c2nc(CS(=O)CC(=O)NC3CCC(C)CC3)c(C)o2)cc1 (configuration not stated) and report it.
84.8% (inactive)

Find the measured viability of COc1ccc(S(=O)(=O)Cc2ccc(C(=O)N3CCN(C(=O)c4ccco4)CC3)o2)cc1 and report it.
92.8% (inactive)
